experiment: log P by HPLC (OECD Guideline 117), method [a] acidic range; format: physicochemical; conditions: HPLC, method [a] acidic range
metric-name: logP[a]

Cc1cc(F)c(-n2nc(C3CC3)n(C(C)C)c2=O)cc1[S+]([O-])CC(F)(F)F (racemic) [Example 353] | 2.58
COc1nn(-c2cc([S+]([O-])CC(F)(F)F)c(C)cc2C)c(=O)n1C1CC1 (stereo not drawn) [Example 119] | 2.21
C=CCn1c(SCC)nn(-c2cc([S+]([O-])CC(F)(F)F)c(C)cc2F)c1=O (stereo not drawn) [Example 431] | 2.83

* * *

test: log P by HPLC (OECD Guideline 117), method [a] acidic range; format: physicochemical; settings: HPLC, method [a] acidic range
metric-name: logP[a]

Some solved cases for reference:
CCn1c([S+](C)[O-])nn(-c2cc([S+]([O-])CC(F)(F)F)c(C)cc2F)c1=O (stereo not shown) | 1.65
Cc1cc(F)c(-n2nc(N(C)C)n(C3CC3)c2=O)cc1SCC(F)(F)F [Example 416] | 3.86
CCOc1nn(-c2ccc(C)c(SCC(F)(F)F)c2)c(=O)n1C1CC1 | 4.19
CCn1c(C(F)(F)F)nn(-c2cc(SCC(F)(F)F)c(C)cc2F)c1=O | 3.96
CCc1nn(-c2cc(SCC(F)(F)F)c(C)cc2F)c(=S)n1C1CC1 | 3.69

a. Cc1ccc(-n2nc(OCC3CC3)n(C)c2=O)cc1SCC(F)(F)F
b. C=CCn1c(OC)nn(-c2cc([S+]([O-])CC(F)(F)F)c(C)cc2F)c1=O (racemic)
Which has the smaller recorded logP[a], a or b ? // respond with label for picked entry
b

I. COc1nn(-c2cc(SCC(F)(F)F)c(C)cc2F)c(=O)n1C
II. CCn1c(C(F)(F)F)nn(-c2cc(SCC(F)(F)F)c(C)cc2Cl)c1=O
III. COCc1nn(-c2cc([S+]([O-])CC(F)(F)F)c(C)cc2F)c(=O)n1N (stereo not shown)
Returns the items ordered by logP[a], from maximum to minimum. Returns: the labels listed in the requested order.
II, I, III

I. C=CCn1c(SC)nn(-c2cc(SCC(F)(F)F)c(C)cc2F)c1=O
II. COc1nn(-c2cc([S+]([O-])CC(F)(F)F)c(F)cc2F)c(=O)n1C1CC1 (stereo not shown)
Could you please tell me which of these two has the higher logP[a]: I or II ? Reply with the label of the item you choose.
I
(I: 3.61, II: 2.15)

P. CCCOc1nn(-c2ccc(C)c([S+]([O-])CC(F)(F)F)c2)c(=O)n1C (stereo not shown)
Q. Cc1cc(F)c(-n2nc(OCC(Cl)(Cl)Cl)n(C)c2=O)cc1SCC(F)(F)F
Just curious, which one has the larger logP[a] reading, P or Q ? Indicate your choice by writing its label.
Q

* * *

assay: log P by HPLC (OECD Guideline 117), method [b] neutral range; format: physicochemical; details: HPLC, method [b] neutral range
metric-name: logP[b]

CCCc1nn(-c2cc(SCC(F)(F)F)c(C)cc2F)c(=O)o1 [Example 460] | 3.92
Cc1cc(F)c(N2C(=O)C=C(Br)C2=O)cc1SCC(F)(F)F [Example 337] | 3.50
Cc1cc(F)c(-n2nc(C(F)(F)F)n(C3CC3)c2=O)cc1SCC(F)(F)F [Example 59] | 3.91
COCc1nn(-c2cc(SCC(F)(F)F)c(C)cc2F)c(=S)n1C1CC1 [Example 492] | 3.43
Cc1cc(F)c(-n2nc(C3CC3)n(C3CC3)c2=O)cc1SCC(F)(F)F [Example 65] | 3.33

P. Cc1ccc(-n2nc(OCC(C)C)n(C)c2=O)cc1[S+]([O-])CC(F)(F)F (stereo not drawn) [Example 167]
Q. COc1nn(-c2cc([S+]([O-])CC(F)(F)F)c(Br)cc2F)c(=O)n1C (stereo not drawn) [Example 174]
Lab note: check whether P or Q has the lower measured logP[b]. Mark your answer with the label of the selected entry.
Q

Reference for the values: patent US9981940B2
